# System: Agrobacterium tumefaciens (Gram negative)
# measurement-notes: Bacterial culture growth inhibition, cell density (OD: 600)
# Assay type: cell-based
# condition-set: 5 μM, 24 h; untreated 1.12
parameter: cell density (OD: 600)
Answer with a number only.

Task: Param item = COc1ccc(C2COc3c(ccc(O)c3OC)C2)c(OC)c1O (single isomer, unassigned; (-)) [Duartin (−), (−)-duartin] ; retrieve measured cell density (OD: 600).
Result: 1.10

Task: Now consider Cl.NCCCCCC(=O)O [Aminocaproic acid hydrochloride, 6-aminohexanoic acid] .
Result: 1.17

Task: Now consider CCn1nc(C(=O)O)c(=O)c2cc3c(cc21)OCO3 .
Result: 1.17

Task: Now consider Cc1cc(O)cc(C)c1Cl .
Result: 1.12

Task: Now consider CCCNC(=O)NS(=O)(=O)c1ccc(Cl)cc1 [Chlorpropamide] .
Result: 1.14

Task: Now consider CN(C)CCOC(c1ccc(Cl)cc1)c1ccccn1.O=C(O)/C=C\C(=O)O (stereo not shown) [Carbinoxamine maleate] .
Result: 1.10

Task: Now consider CN(C)CCOC(=O)C(c1ccccc1)C1(O)CCCC1.Cl (stereo not shown) [Cyclopentolate hydrochloride] .
Result: 1.08
